Sourced from the supplement of paper PMC7877785

test: self-splicing fitness, log relative to wild type (ln ratio); higher = more splicing; Tetrahymena group I intron in knt gene, E. coli kanamycin selection, DiMSum; sequences stand for … in CUCUCU…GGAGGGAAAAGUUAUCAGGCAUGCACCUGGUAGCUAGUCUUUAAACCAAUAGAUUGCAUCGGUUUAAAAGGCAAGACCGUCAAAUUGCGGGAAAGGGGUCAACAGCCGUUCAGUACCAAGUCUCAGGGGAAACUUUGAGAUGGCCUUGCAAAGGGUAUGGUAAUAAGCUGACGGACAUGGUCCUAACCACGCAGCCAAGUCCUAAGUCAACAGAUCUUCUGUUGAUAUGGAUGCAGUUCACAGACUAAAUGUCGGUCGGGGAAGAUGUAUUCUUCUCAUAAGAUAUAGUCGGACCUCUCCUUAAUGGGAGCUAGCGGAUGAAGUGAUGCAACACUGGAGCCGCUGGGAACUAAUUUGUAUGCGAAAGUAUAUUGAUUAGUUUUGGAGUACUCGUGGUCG; conditions: 37 °C;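 note: selection with 25 µg/mL kanamycin versus none on LB agar overnight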
Metric: self-splicing fitness (ln)
Please reply with the value in numeric form only.

Form field: reported self-splicing fitness (ln) of "CUACAGCAAUAUUACGAGCG"
-0.442

Form field: reported self-splicing fitness (ln) of "UGCCAGCAAUAUUACGGGGU"
-2.48

Form field: reported self-splicing fitness (ln) of "UAUUAGCAAUAUUACGGCGU"
-0.989

Form field: reported self-splicing fitness (ln) of "GACUAGCAAUAUUACGCACC"
0.000851

Form field: reported self-splicing fitness (ln) of "GAGAAGCAAUAUUACGCUGG"
-1.64

Form field: reported self-splicing fitness (ln) of "AUUUAGCAAUAUUACGCGUC"
-2.96

Form field: reported self-splicing fitness (ln) of "AAUCAGCAAUAUUACGGUUC"
-1.91

Form field: reported self-splicing fitness (ln) of "UUCAAGCAAUAUUACGCCAU"
-2.88
